Reference source: PubChem BioAssay (NCATS)

- PROTOCOL_TEXT: Quantitative High-Throughput drug screen in 47 multiple myeloma cell lines against the NCATS MIPE library collection: RPMI8226_ATCC cell viability assay (AID 1919871); further: nearly all actives have a fitted effect of over 30% in size
- MEASUREMENT_SETUP: RPMI8226 myeloma viability, CellTiter-Glo ATP luminescence, 48 h; series mostly up to 45.8 µM
Results filed as inconclusive are left out. Activity calls are given as the source filed them. The call rests on the fitted dose curve; in most records, active means well fitted cell-killing curve with a large enough effect; inconclusive means small, poorly fitted or top-dose-only effect, or effect the other way; inactive means no such curve, though single readings can be large or run the other way.
Answer with one of the outcomes true (1) for active, false (0) for inactive

Recorded results for 3 molecules are shown here.
{"MOLECULE": "COCC(=O)NCC=Cc1ccc2ncnc(Nc3ccc(Oc4ccc(C)nc4)c(C)c3)c2c1", "CAT": "true (1)"}
{"MOLECULE": "N#Cc1ccc(C(c2ccc(C#N)cc2)n2cncn2)cc1", "CAT": "true (1)"}
{"MOLECULE": "CC(C[N+](C)(C)C)OC(N)=O (centres undefined)", "CAT": "false (0)"}

Proceed to the following item.
Problem: Could you check what this test reported for COc1cc(F)c(F)c(Nc2ccc(I)cc2F)c1NS(=O)(=O)C1(C[C@H](O)CO)CC1 ?
Solution: true (1)
